Listed here: items and their measured growth inhibition.
- assayText: NCI Yeast Anticancer Drug Screen. Data for the cln2 rad14 strain (AID 165);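 further: 0% = growth equal to vehicle treated cultures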
- measurementConditions: S. cerevisiae cln2 rad14 strain, hits give high values; at 50.0 µM unless noted
Compounds without any hit were thinned out: in the full panel of roughly 79,000, 15% have a hit.
Provide only the numeric value, understood in %.

Worked cases, answers included:
>  <compound>
Nc1[nH]c(=O)[nH]c(=O)c1[N+](=O)[O-]

>  <uom>
%

>  <experimentalValue>
-8.5

$$$$
>  <compound>
C=C1CC[C@@H](C)[C@](C)(CCc2ccoc2)C/C=C\C=C/1C(=O)O

>  <uom>
%

>  <experimentalValue>
48.1

$$$$
>  <compound>
O=c1c2c3c(sc2nc2n1N=C(c1ccc(Cl)cc1)CS2)CCCC3

>  <uom>
%

>  <experimentalValue>
1.8

$$$$
>  <compound>
Cn1cnc2[nH]c(=O)[nH]c(=O)c21

>  <uom>
%

>  <experimentalValue>
1.95

$$$$

Exam item: Answer with reported growth inhibition of Nc1ncc(C(=O)O)s1
Marked response: 7.35

Exam item: Answer with reported growth inhibition of CNc1c(F)c(C#N)c(F)c(F)c1C#N
Marked response: -8.95

Exam item: Answer with reported growth inhibition of CC1CCCN2C(=O)CN(c3ccccc3)CC(=O)N12 (stereo not drawn)
Marked response: 14.9
